- Test system: MYB mRNA
- assay.details: Gene panel canonical junction qPCR assay, decrease in CJ mRNA, Table 3
- Type: cell-based
- condition.summary: decrease in canonical junction (CJ) mRNA, gene panel qPCR, Table 3
Where a name gives a salt, the structure may show the parent alone.
measured.metric: IC50

Example entries begin here.
INSERT INTO assay_data (compound, measured_metric, result) VALUES
  ('CCNC1CCN(c2cc(F)c(C(=O)Nc3nc4c(C)nc(C)cn4n3)c3nn(C)cc23)CC1 [Compound 301, 2,2,2-trifluoroacetate]', 'IC50', '> 10000 nM'),
  ('CCNC1CCN(c2ccc(C(=O)Nc3cn4cc(C)nc(C)c4n3)c3nn(C)cc23)CC1C (stereo not shown)', 'IC50', '> 10000 nM'),
  ('C=CCNC1CCN(c2ccc(C(=O)Nc3cn4cc(C)nc(C)c4c3OC)c3nn(C)cc23)CC1', 'IC50', '1000 to 10000 nM'),
  ('CN[C@H]1CCN(c2ccc(C(=O)Nc3cc(F)c4nc(C)cn4c3)c3nnn(C)c23)C1', 'IC50', '100 to 1000 nM'),
  ('CCNC1CCN(c2cc(Cl)c(C(=O)Nc3cn4cc(C)nc(C)c4n3)c3nn(C)cc23)CC1', 'IC50', '1000 to 10000 nM');

Looking for the measured IC50 of COc1cnncc1NC(=O)c1c(F)cc(N2CCC(NC3CC3)CC2)c2cn(C)nc12 , can you help?
> 10000 nM

Looking for the measured IC50 of CCNC1CCN(c2ccc(C(=O)Nc3cc(CC(N)=O)c4nc(C)cn4c3)c3nn(C)cc23)CC1 , can you help?
> 10000 nM

Looking for the measured IC50 of Cc1cn2cc(NC(=O)c3ccc(N4CCNCC4=O)c4cn(C)nc34)cc(F)c2n1 [Compound 251, 2,2,2-trifluoroacetate] , can you help?
> 10000 nM

Looking for the measured IC50 of CCNC12CC(C1)N(c1ccc(C(=O)Nc3cc(F)c4nc(C)cn4c3)c3nn(C)cc13)C2 , can you help?
100 to 1000 nM

Looking for the measured IC50 of CN[C@H]1C[C@H](C)N(c2ccc(C(=O)Nc3cc(F)c4nc(C)cn4c3)c3nn(C)cc23)C1 , can you help?
> 10000 nM

Looking for the measured IC50 of CCNC1CCN(c2ccc(C(=O)Nc3cn4cc(CC)nc(C)c4n3)c3nn(C)cc23)CC1 [Compound 311, 2,2,2-trifluoroacetate] , can you help?
> 10000 nM

Looking for the measured IC50 of COc1cc2nn(C)cc2cc1NC(=O)c1ccc(OC2CCNC2)c2cn(C)nc12 (stereo not shown) , can you help?
100 to 1000 nM

Looking for the measured IC50 of CCNC1CCN(c2ncc(C(=O)Nc3cn4cc(C)nc(C)c4n3)c3nn(C)cc23)CC1 , can you help?
100 to 1000 nM

Looking for the measured IC50 of COc1c(NC(=O)c2c(F)cc(N3CCC(NC4CC4)CC3)c3cn(C)nc23)cc2cn(C)nc2c1C , can you help?
100 to 1000 nM

Looking for the measured IC50 of COc1cc2nn(C)cc2cc1NC(=O)c1ccc(N2CC3(CNC3)C2)c2cn(C)nc12 , can you help?
100 to 1000 nM

Looking for the measured IC50 of CCNC1CCN(c2ccc(C(=O)Nc3cc(CC(=O)NC)c4nc(C)cn4c3)c3nn(C)cc23)CC1 [Compound 341, trifluoroacetate] , can you help?
> 10000 nM

Cited source: patent US20260285853A1
